# Target System: Prostaglandin G/H synthase 2 (Homo sapiens);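 also: in vitro assay on recombinant human COX-2 produced in baculovirus-infected Sf9 insect cells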
# Measurement Parameters: Sf9; at 10 µM
# Description: In vitro inhibitory activity against human recombinant prostaglandin G/H synthase 2 (COX-2) at 10 uM expressed in sf-9 cells infected with baculovirus
Entries and their inhibition values follow.
# number only, unit % dropped from output

# Smiles Text, inhibition, %
records = [
    ("CS(=O)(=O)Nc1ccc(-c2cc(C(F)(F)F)nn2-c2ccc([N+](=O)[O-])cc2)cc1", 0),
    ("CN(C)c1ccc(-n2nc(C(F)(F)F)cc2-c2ccc(NS(C)(=O)=O)cc2)cc1", 100),
    ("CCCC(=O)N(c1ccc(-c2cc(C(F)F)nn2-c2ccc(Cl)cc2)cc1)S(C)(=O)=O", 42),
    ("CS(=O)(=O)Nc1ccc(-c2cc(C(F)(F)F)nn2-c2ccc(N)cc2)cc1", 69),
    ("CS(=O)(=O)Nc1ccc(-c2cc(C(F)F)nn2-c2ccccc2)cc1", 31),
]

Answer with the recorded inhibition of CS(=O)(=O)Nc1ccc(-c2cc(C(F)(F)F)nn2-c2cccc(F)c2)cc1 only.
70

State its inhibition for this compound: CS(=O)(=O)Nc1ccc(-c2cc(C(F)(F)F)nn2-c2ccc(Cl)cc2)cc1
100

Check the records and state inhibition for CS(=O)(=O)Nc1ccc(-c2cc(C(F)F)nn2-c2cccc(F)c2)cc1
67

Quote inhibition reported for CS(=O)(=O)Nc1ccc(-c2cc(C(F)(F)F)nn2-c2cccc(Cl)c2)cc1 please.
3
